Task for the reader: assign each of the following compounds its reported pKa.
Give bare numbers.

Observe how each entry below is paired with its result.
INSERT INTO assay_data (smiles, readout_number) VALUES
  ('O=C([O-])c1ccccc1Nc1cc(F)cc(C(F)(F)F)c1', 3.9),
  ('CNC(=O)c1nc(-c2ccc(Cl)c(S(=O)(=O)Nc3cccc(F)c3C)c2)cnc1N', 7.6),
  ('Clc1ccc2c(c1)[NH+]=C(N1CCCCC1)c1ccccc1N2', 7.2);

Pending compound:
## Task If you can, please state the reported pKa value of O=c1cc(CSc2cccc(F)c2F)nc2cc[nH]n12 .
## Result 7.35

###

Would you kindly list pKa for each of these compounds?

INSERT INTO assay_data (compound, result) VALUES
  ('COc1ccc(-c2nc(Nc3ccc(F)cc3F)c3ccccc3n2)cc1OC', 5.2),
  ('CCS(=O)(=O)c1ccc(CC(=O)Nc2nc(-c3ccccc3)c(C(=O)c3ccccc3)s2)cc1', 7.9),
  ('O=C(CSc1nccn1C1CCCC1)Nc1ccc(C(F)(F)F)cc1', 5.1);

List pKa for every entry below, keeping the order given.
1. Cn1cc(C(=O)[O-])c(=O)c2ccccc21
2. O=C([O-])CSc1ncnc2cc(-c3ccc(Br)cc3)sc12
3. COc1ccc2nccc(-n3cc4c(n3)CCC(NC(=O)c3ccc5c(c3)NC(=O)CS5)C4)c2n1 (centres undefined)
4. Cc1cc(C(=O)C[NH+]2CCCC2)c(C)n1-c1ccc(F)cc1
5. Cc1ccc(NC(=O)c2cccc(C(C)(C)C#N)c2)cc1Nc1ccc2ncn(C)c(=O)c2c1

## Result
1: 6.5; 2: 3.5; 3: 3.8; 4: 9; 5: 3.6

###

For each of the molecules below, state its pKa.
One number for each entry.

Use these answered entries as a reference point.
INSERT INTO measurements (molecule, readout_number) VALUES
  ('CC(=O)Nc1cc(Cl)ccc1/C=C/C(=O)N1CC[NH+](Cc2ccc(F)cc2)C[C@H]1C', 5.9),
  ('CN(n1c(=O)[nH]c2cc(Cl)ccc2c1=O)S(C)(=O)=O', 8.4),
  ('COc1ccc(OC)c(CNc2ccc3nc(N)nc(N)c3c2Cl)c1', 7.1),
  ('CCCCC[C@H](O)CC[C@@H]1[C@H]2Cc3cccc(OCC(=O)[O-])c3C[C@H]2C[C@H]1O', 3.37),
  ('[NH3+]C(CO)c1ccccc1 (stereo unspecified)', 8.4);

Below are some molecules; for each one, tell me its pKa.
1. CNC(=O)c1c(NCC2CCC3(CCC3)CC2)nc(C#N)nc1OCC1CC[NH+](C)CC1
2. Cn1c(N)nc2ccccc2c1=O

## Result
[10.7, 5.2]

Provide reported pKa for each item, in the same order as listed.
1. Cc1cc(N2CCCC2)cc(/C=C/c2cccc(C(F)(F)F)c2)[nH+]1
2. CC(=O)N1CCC(CNc2nc3c(s2)CCCc2ccc(F)cc2-3)CC1
3. CNC(=O)c1ccccc1Nc1nc(Nc2ccc(N3CCOCC3)cc2OC)ncc1Cl
4. CC#CCn1c(N2CC[NH2+]CC2)c(C#N)c2ncn(CC(=O)c3cccc(OC)c3)c(=O)c21

## Result
9.43
4.31
4.27
8.2

###

Tag: condition met if measured pKa is not below 5, condition not met if it is.

INSERT INTO results (compound, discrete_label) VALUES
  ('Cc1csc2ncnc(NCCc3ccc(Cl)cc3)c12', 'condition not met'),
  ('NC(=O)c1cccc(-c2cc(Nc3ccc(OC(F)(F)F)cc3)ncn2)c1', 'condition not met'),
  ('COC(=O)Cn1c(C[NH+]2CCC(Cc3ccccc3)CC2)nc2c1c(=O)n(C)c(=O)n2C', 'condition met'),
  ('Cc1ccc2c(c1)C(=O)C(=O)N2', 'condition met'),
  ('O=S(=O)(c1ccccc1)n1cc(-c2cccc3nccn23)c2ccccc21', 'condition met');

## Task Tell me whether pKa is at least 5 here: Cc1ccc(C)n1-c1ccc(SCC(=O)[O-])cc1
## Result condition not met

## Task Hi team, for Cc1cc(C)c2cc(C(=O)NC3CC[NH+](C)CC3)[nH]c2c1 , is the recorded pKa at or above 5?
## Result condition met

## Task Answer whether pKa of O=c1ccc2nc3ccc(O)cc3oc-2c1 is greater than or equal to 5.
## Result condition met

## Task Check if pKa >= 5 (inclusive). Item: Nc1nccc(N2CCc3ccc(Br)cc32)n1
## Result condition met

## Task Could you tell me if the measured pKa of CNC(=O)c1ccc(Oc2ccc3c(c2)CC[NH+](C2CCC2)CC3)nc1 reaches 5 or more?
## Result condition met

## Task Please tell me: is the compound O=C(NC(=O)c1ccccc1)c1ccccc1 at or over 5 in terms of pKa?
## Result condition met

## Task Threshold query (pKa >= 5) on N#Cc1cc(C[NH+]2CCC(Nc3ncnc4sc(Cl)cc34)CC2)ccc1F
## Result condition met

###

Classification by pKa | ranges: lo: < 4; med: ≥ 4 and < 8; hi: ≥ 8

Field: example entries. Status: answers known.
INSERT INTO measurements (compound, discrete_label) VALUES
  ('Cc1ccc(C)n1-c1ccc(Cl)cc1C(=O)[O-]', 'lo'),
  ('CN1C(=O)N(C[C@H](C(=O)NO)[C@@H](CC2CCCC2)C(=O)N2CCCCC2)C(=O)C1(C)C', 'hi'),
  ('O=C([O-])c1ccc(NC(=O)c2cn(-c3ccccc3)nc2-c2ccc(Cl)cc2)cc1', 'med');

## Task Could you place CCOC(=O)c1c(C)cc2nc(COC(=O)NCCO)n(-c3ccccc3S(=O)(=O)NC)c(=O)c2c1C in its proper category? Many thanks.
## Result hi

## Task Determine which band this compound sits in: O=NC(=O)CCc1ccc(C[NH2+]CC23CC4CC(CC(C4)C2)C3)cc1
## Result hi

## Task # bin lookup: classify O=C([O-])COc1ccc(Cl)cc1C1CCCCC1 by its pKa
## Result lo

## Task Place this compound in its band: COc1cc(C(C)O)ccc1OCCC[NH+]1CCC(c2noc3cc(F)ccc23)CC1 (stereo not given)
## Result hi

## Task Input Cc1c(-c2ccccc2)c(=O)oc2cc(O)ccc12 ; output its category
## Result med

## Task Lab log: O=c1[nH]c2c(Cc3nn[n-]n3)c3ccccc3n2c2ccccc12 — assign pKa category
## Result med

###

measurement-name: pKa
One number for each entry.

INSERT INTO results (compound, readout_number) VALUES
  ('CCC1(c2ccccc2)C(=O)NC(=O)N(C)C1=O (configuration not stated)', 7.6),
  ('O=C(NCc1ccc(Cl)cc1)c1cn2c(CCO)cc3cc(C[NH+]4CCOCC4)cc(c1=O)c32', 5.9),
  ('O=C1CCN(Cc2ccccc2)C(=O)N1', 11.7),
  ('COc1cc2c(cc1OC)CN(c1cc(N)c3cc(OC)c(OC)cc3[nH+]1)CC2', 8.9),
  ('Fc1ccc2c(/C=C/c3cccnc3)c[nH]c2c1', 5.3);

For every item in the list below, what is its measured pKa?
1. CC(=O)Nc1ccc(Nc2ncnc3c2c(-c2ccccc2)cn3-c2ccccc2)cc1
2. O=C(Nc1nccs1)C(CC1CCCC1)c1ccc(Cl)cc1 (configuration not stated)
3. CCc1ccc(/C=C2/SC(=S)[N-]C2=O)cc1

## Result
[3.9, 10.5, 5.8]

###

measurement-name: pKa
Give bare numbers.

# count of solved cases: 2
INSERT INTO results (smiles, readout_number) VALUES
  ('Cc1nc2ccccn2c1C(=O)NCc1ccc(-c2ccccc2)cc1', 4.7),
  ('C[NH+](CCC(=O)N1CCN(c2ccc(F)c(F)c2)CC1)CCC1c2ccccc2-c2ccccc21', 7.8);

For the 3 compounds below, give their pKa values.
1. O=C1c2ccccc2-[n+]2ccc3c([nH]c4ccccc43)c21
2. CCN1c2ccc(C#N)cc2N=C(c2ccc(C(=O)[O-])c(F)c2)c2cc3c(cc21)C(C)(C)CCC3(C)C
3. CN1c2ccc(C#N)cc2N=C(c2ccc(C(=O)[O-])c(F)c2)c2cc3c(cc21)C(C)(C)CCC3(C)C

## Result
[8.7, 3, 3.4]

###

Give pKa for every item shown.
Numbers only.

I need pKa for every entry listed below, if you could help.
1. C/C(=C\c1ccccn1)[C@@H]1C[C@@H]2O[C@]2(C)CCC[C@H](C)[C@H](O)[C@@H](C)C(=O)C(C)(C)[C@@H](O)CC(=O)O1
2. Clc1ccc(OCc2nn[n-]n2)c(C2CCCCC2)c1
3. C/C(=C\c1ccc(C)cn1)[C@@H]1C[C@@H]2O[C@]2(C)CCC[C@H](C)[C@H](O)[C@@H](C)C(=O)C(C)(C)[C@@H](O)CC(=O)O1

## Result
[5, 3.87, 4.5]

Hey, can you go through the list below and give me pKa for every item?
1. CCN(Cc1ccccc1)c1ccccc1
2. CNc1nc2ccccc2n(C)c1=O
3. CC(=O)Nc1cccc2c1c(Sc1ccc(Cl)cc1)c(C)n2CC(=O)[O-]
4. O=C1CN=C(c2ccccc2)c2cc3ccccc3cc2N1
5. Cc1nc(N2CCN(Cc3ccccc3)C2=O)sc1C(=O)NCc1ccccn1
6. Cc1ncccc1Oc1ncnc(OC2CCN(C(=O)OC(C)C)CC2)c1C
7. COc1ccc(C#CC(C)(C)[NH3+])cc1C(=O)c1ccc(Nc2ccc(F)cc2F)cc1

## Result
1. 5.8
2. 4.25
3. 2.92
4. 3.8
5. 4.28
6. 4.18
7. 8.1

I'm hoping you can list pKa for every molecule here, please.
1. O=C(NCC[NH+]1CCC(n2c(=O)[nH]c3cc(F)ccc32)CC1)c1ccc(F)cc1
2. Cc1nc(-n2ccc([O-])cc2=O)sc1C(=O)NCc1ccccc1

## Result
[8.77, 5.2]

Hello, I would appreciate it if you could give pKa for each entry below.
1. C[NH+](C)CC1CCc2cc(NC(=O)c3ccc(-c4ccc(F)cc4)cc3)ccc2C1 (stereo not given)
2. Cc1ncc(-c2ccc(C(F)(F)F)cc2)c(NC2CCCCCC2)n1
3. CCCCCCCCc1ccc(CCC([NH3+])(CO)CO)cc1

## Result
9.1
6
8.52
